Each record here notes measured melting point.

Recorded melting point, per entry:
COC(=O)COC1C(O)C(CO)OC(Oc2ccc(N)cc2)C1O (stereo not given) : 155 °C
CCC(Cc1ccccc1)(NC(=O)CN)c1ccccc1 (stereo not given) : 108 to 110 °C

Inquiry: Tell us which melting point value is on record for CC1(C)CC(=O)Nc2cc3nc(-c4ccc(CO)cc4)[nH]c3cc21
Reply text: 214 to 232 °C

Inquiry: Tell us which melting point value is on record for Cc1cc(C)cc(-c2cnn3c(-c4cccc(NC(=O)CC(C)C)c4)ccnc23)c1
Reply text: 178 to 180 °C

Inquiry: Tell us which melting point value is on record for CCCNC(=O)C(C)Cc1ccc2c(c1)c(Cc1ccc(C(=O)NS(=O)(=O)c3ccccc3C)cc1OC)cn2CC(=O)N(C)C (stereo not given)
Reply text: 109 to 124 °C

* * *

Readout type: melting point

CCC(=O)NCCC1CCc2ccc3c(c21)OCO3 (stereo unspecified) : 102 to 104 °C
CO/C=C1/C(=O)NC(=O)c2ccc(Br)cc21 : 210 to 211 °C
O=C(O)C(CCC(=O)N1CCOCC1)Cc1cccc2ccccc12 (stereo unspecified) : 130 to 135 °C
O=C(NC[C@@H]1CN2C(=O)C[C@H]2O1)c1ccccc1 (racemic) : 115 to 116 °C
COc1cnc(Cl)c(C(N)=O)c1 : 129 to 132 °C

Inquiry: Tell us which melting point value is on record for COc1ccc(C2(CCN3CCC(C(N)=O)(c4ccccc4)CC3)CCN(C(=O)c3cc(OC)c(OC)c(OC)c3)C2)cc1OC (stereo unspecified)
Reply text: 60 to 62 °C

Inquiry: Tell us which melting point value is on record for CCn1ncc2c(O)c3c(nc21)C(=O)c1ccccc1CC3
Reply text: 190 to 192 °C

Inquiry: Tell us which melting point value is on record for CNC(=O)[C@@H](N)Cc1ccc(OC)cc1
Reply text: 90 to 91 °C

Inquiry: Tell us which melting point value is on record for CN(O)C(=O)NCCc1cc2ccccc2o1
Reply text: 120 °C

Inquiry: Tell us which melting point value is on record for COc1cc(C(=O)c2cnc(Cl)nc2Cl)cc(OC)c1OC
Reply text: 140 to 141 °C

Inquiry: Tell us which melting point value is on record for Cc1nc(-c2cccnc2)cs1
Reply text: 81 °C

* * *

Readout type: melting point

Recorded melting point, per entry:
O=C1c2ccccc2C(=O)N1OCn1ccnc1 : 158 to 160 °C
N#Cc1cccnc1N1CCN(CC(=O)Nc2cc(C(F)(F)F)ccc2F)CC1 : 130 to 133 °C
CCC(CC)Nc1cc(C)nc2c1CCC(=O)N2c1c(C)cc(C)cc1C : 124 to 126 °C

Inquiry: Tell us which melting point value is on record for COc1cc(OC)cc(C(=O)CC(=O)c2ccc(O)cc2O)c1
Reply text: 267 to 268 °C

Inquiry: Tell us which melting point value is on record for Cc1ccc(C(=O)c2cc(-c3ccc(S(C)(=O)=O)cc3)c(N3CCOCC3)s2)cc1
Reply text: 189 °C

Inquiry: Tell us which melting point value is on record for COc1cccc(C(=O)C(=NN)c2cccc(OC)c2)c1
Reply text: 109 to 110 °C

Inquiry: Tell us which melting point value is on record for COC(=O)c1cc(C(=O)NC(C)(C)CO)c2cc(Cc3ccc(F)cc3)cnc2c1O
Reply text: 204 to 205 °C

Inquiry: Tell us which melting point value is on record for Cc1ccc(CCN(C)CCCCCC2Cc3cc(O)ccc3C3C(F)CC4(C)C(O)CCC4C23)cc1 (stereo not given)
Reply text: 142 to 143 °C

Inquiry: Tell us which melting point value is on record for CCSc1cc(C)nc(SCC)c1NC(=O)CCCCCCCSc1nc2ccccc2o1
Reply text: 82 to 84 °C

Inquiry: Tell us which melting point value is on record for CCN(CC)CC(O)Cn1cc(-c2ccccc2)c2ccccc2c1=O (stereo not given)
Reply text: 106 °C

Inquiry: Tell us which melting point value is on record for CCOC(=O)c1[nH]c(-c2ccc(Cl)cc2)nc1C
Reply text: 237 to 238 °C

Inquiry: Tell us which melting point value is on record for Nc1cc(Cl)nn1-c1c(Cl)cc(C(F)(F)F)cc1Cl
Reply text: 128 to 129 °C

Inquiry: Tell us which melting point value is on record for O=[N+]([O-])c1cnn2ccccc12
Reply text: 179 to 182 °C

Inquiry: Tell us which melting point value is on record for C=CC(=O)Oc1ccc(N2C(=O)C(=C(C)C)/C(=C(/C)c3cc(C)oc3C)C2=O)cc1
Reply text: 157 to 158 °C

Inquiry: Tell us which melting point value is on record for Nc1nnc(-c2ccc(CN3CCCCCC3)s2)s1
Reply text: 156 to 157 °C

Inquiry: Tell us which melting point value is on record for CC(=O)c1cc(Cl)ccc1Nc1ccc(OCc2ccccc2)cc1
Reply text: 74 to 75 °C

Inquiry: Tell us which melting point value is on record for COc1ccc(C(=O)N(C)Cc2cccc(-c3ccc(CC4SC(=O)NC4=O)cc3)c2)cc1 (stereo not given)
Reply text: 170 °C

Inquiry: Tell us which melting point value is on record for N#CC(O)C1(F)CCN(C(=O)c2ccc(F)c(Cl)c2)CC1 (stereo not given)
Reply text: 139 to 140 °C

Inquiry: Tell us which melting point value is on record for CS(=O)(=O)OCC1CN(c2ccc3ccccc3c2)C(=O)O1 (stereo not given)
Reply text: 169 to 172 °C

Inquiry: Tell us which melting point value is on record for COc1ccc(N2CCCCN(CCCCNC(=O)c3ccc(NC(=O)c4ccc(Cl)cc4)cc3)CC2)c(OC)c1
Reply text: 229 °C
